target: human D3-receptor (Homo sapiens, UniProt P35462); construct: host or cells: CCL 1,3 mouse fibroblasts; test: D3 binding test (125iodosulpiride displacement); conditions: cloned human D3 receptor in CCL 1,3 mouse fibroblast membranes; 0.1 nM 125iodosulpiride; read-out: Ki value for the binding toward the D3 receptor
Sequence (P35462 whole entry): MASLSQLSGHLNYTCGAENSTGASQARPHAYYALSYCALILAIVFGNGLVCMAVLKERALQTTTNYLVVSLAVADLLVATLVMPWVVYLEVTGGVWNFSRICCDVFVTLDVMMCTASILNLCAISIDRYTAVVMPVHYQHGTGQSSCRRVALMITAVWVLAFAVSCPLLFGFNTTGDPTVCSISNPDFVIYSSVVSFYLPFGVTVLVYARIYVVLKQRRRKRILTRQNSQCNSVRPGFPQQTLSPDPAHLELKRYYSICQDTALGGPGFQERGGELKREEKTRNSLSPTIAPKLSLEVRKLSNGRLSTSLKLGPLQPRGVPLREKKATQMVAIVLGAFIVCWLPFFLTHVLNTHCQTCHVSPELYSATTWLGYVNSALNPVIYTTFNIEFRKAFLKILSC
TEST_READOUT: Ki (nM)
One number for each entry, in nM.

Request: Return the recorded Ki value; entry: Cn1c(SCCCN2CCC3c4c(Br)cccc4CCC32)nnc1-c1ccccc1 (mixture of isomers)
Result: 50
